Source of measurements: patent US12673961B2

Target: human PAH with the R408W mutation (Homo sapiens, UniProt P00439, R408W)
Construct: expressed in transfected cells
Test: Cell Based Phenylalanine Flux Assay
Conditions: A375 cells expressing human R408W PAH; 24 hrs with compound, then sepiapterin and 13C9,15N-Phenylalanine for 4 hours; 13C-Tyrosine by LC-MS; average where tested multiple times; read-out: AC50
endpoint label: AC50

The following compounds have reported results that may help.
Cc1cccc(-c2nnc(C(=O)N3CCc4[nH]cnc4[C@H]3c3cc4cccc(C)n4n3)o2)n1 [Example 1398]	< 500 nM
CC(C)c1cccn2nc([C@@H]3c4nc[nH]c4CCN3c3nnc(C(F)(F)F)o3)cc12 [Example 2147]	< 500 nM
Fc1ccc(-c2nnc(N3CCc4[nH]cnc4[C@@H]3c3cc4c(C(F)F)cccn4n3)o2)cc1 [Example 1912]	> 5000 nM
CC(C)(C)c1ncc(C(=O)N2CCc3[nH]cnc3[C@H]2c2cc3ccccn3n2)o1 [Example 1866]	< 500 nM

Each compound below has a recorded value; state its AC50.
1. Fc1cccc(F)c1-c1nnc(N2CCc3[nH]cnc3[C@H]2c2cc3ccccn3n2)o1 (single isomer, unassigned) [Example 1843]
2. O=C(c1nnc(C2CCC2)o1)N1CCc2[nH]cnc2[C@H]1c1cc2c(C(F)(F)F)cccn2n1 [Example 1519]
3. O=C(c1ocnc1C1CC1)N1CCc2[nH]cnc2[C@@H]1c1cc2c(C(F)(F)F)cccn2n1 [Example 2015]

(A)
["< 500 nM", "< 500 nM", "1000 to 5000 nM"]

----------
Target: human PAH with the R408W mutation (Homo sapiens, UniProt P00439, R408W)
Construct: expressed in transfected cells
Sequence (P00439 1-452 R408W): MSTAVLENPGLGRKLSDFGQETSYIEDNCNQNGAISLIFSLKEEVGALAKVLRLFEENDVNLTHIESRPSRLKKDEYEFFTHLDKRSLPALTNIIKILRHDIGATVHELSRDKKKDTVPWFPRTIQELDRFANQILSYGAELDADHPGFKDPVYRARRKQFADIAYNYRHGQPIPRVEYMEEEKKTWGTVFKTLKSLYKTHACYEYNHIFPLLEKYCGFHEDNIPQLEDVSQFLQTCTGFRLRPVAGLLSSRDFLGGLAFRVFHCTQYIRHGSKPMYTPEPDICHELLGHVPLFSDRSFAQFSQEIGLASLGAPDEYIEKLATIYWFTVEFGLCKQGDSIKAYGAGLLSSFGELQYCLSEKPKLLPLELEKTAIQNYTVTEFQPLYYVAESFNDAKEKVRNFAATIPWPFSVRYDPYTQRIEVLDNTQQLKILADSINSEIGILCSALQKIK
Assay: Cell Based Phenylalanine Flux Assay
Settings: A375 cells expressing human R408W PAH; 24 hrs with compound, then sepiapterin and 13C9,15N-Phenylalanine for 4 hours; 13C-Tyrosine by LC-MS; average where tested multiple times; read-out: AC50
I'd appreciate it if you could supply AC50 values for the items below.

CC(C)c1cccn2nc([C@@H]3c4nc[nH]c4CCN3c3nnc(-c4cccnn4)o3)cc12 [Example 2512]	1000 to 5000 nM
Cn1ccc(-c2nnc(C(=O)N3CCc4[nH]cnc4[C@@H]3c3cc4c(C5CC5)cccn4n3)o2)n1 [Example 1901]	> 5000 nM
Cc1cccn2nc([C@H]3c4nc[nH]c4CCN3C(=O)c3nnc(C4CC4)s3)cc12 [Example 1996]	1000 to 5000 nM
CC1(c2nnc(N3CCc4[nH]cnc4[C@H]3c3cc4c(C5CC5)cccn4n3)o2)CC1 [Example 2227]	500 to 1000 nM
Cc1cccc(-c2nnc(C(=O)N3CCc4[nH]cnc4[C@H]3c3cc4c(C)cccn4n3)o2)n1 [Example 1429]	< 500 nM
CC(C)c1cccn2nc([C@H]3c4nc[nH]c4CCN3C(=O)c3nnc(-c4ccn(C(F)F)n4)o3)cc12 [Example 1982]	> 5000 nM

Field: next molecule
(Q) Look up AC50: FC(F)(F)c1cccn2nc([C@@H]3c4nc[nH]c4CCN3c3nnc(C4CC4)o3)cc12 [Example 1591]
(A) 500 to 1000 nM

----------
Molecular target: human PAH with the R408W mutation (Homo sapiens, UniProt P00439, R408W)
Construct: expressed in transfected cells
Assay: Cell Based Phenylalanine Flux Assay
Conditions: A375 cells expressing human R408W PAH; 24 hrs compound incubation; 13C-Tyrosine by LC-MS; average where tested multiple times; read-out: AC50
Answer each item with its documented AC50.

O=C(c1ccnn1C(F)F)N1CCc2[nH]cnc2[C@@H]1c1cc2cccc(Cl)n2n1 [Example 1065]	1 to 5 µM
Cn1cc(-c2nnc(C(=O)N3CCc4[nH]cnc4[C@@H]3c3cc4c(F)cccn4n3)o2)cn1 [Example 729]	> 5 µM
Cc1ncccc1-c1nnc(C(=O)N2CCc3[nH]cnc3[C@H]2c2cc3c(Cl)cccn3n2)o1 [Example 1356]	< 0.5 µM
O=C(c1ccnn1C(F)F)N1CCc2[nH]cnc2[C@@H]1c1cc2c(Cl)cccn2n1 [Example 783]	1 to 5 µM
O=C(c1oc(-c2ccccn2)nc1C1CC1)N1CCc2[nH]cnc2[C@H]1c1cc2ccccn2n1 [Example 622]	0.5 to 1 µM

I need AC50 for every entry listed below, if you could help.
1. Cc1cccc2cc([C@@H]3c4nc[nH]c4CCN3C(=O)c3nnc(-c4ncccc4F)o3)nn12 [Example 912]
2. Cn1nc(C(F)F)cc1C(=O)N1CCc2[nH]cnc2[C@@H]1c1cc2c(C(F)F)cccn2n1 [Example 1373]
3. Cc1ncccc1-c1nnc(C(=O)N2CCc3[nH]cnc3[C@H]2c2cc3ccccn3n2)o1 [Example 1364]

(A)
["< 0.5 µM", "1 to 5 µM", "< 0.5 µM"]

Need AC50 for each of these compounds.
1. Cc1nc(C(C)(C)O)oc1C(=O)N1CCc2[nH]cnc2[C@@H]1c1cc2c(C)cccn2n1 [Example 755]
2. Cn1nc(C2CC2)nc1C(=O)N1CCc2[nH]cnc2[C@@H]1c1cc2c(Cl)cccn2n1 [Example 1073]
3. C[C@H](O)c1nc(C(F)F)c(C(=O)N2CCc3[nH]cnc3[C@@H]2c2cc3c(F)cccn3n2)o1 [Example 713]
4. Cc1c(-c2nnc(C(=O)N3CCc4[nH]cnc4[C@@H]3c3cc4c(C(F)F)cccn4n3)o2)cnn1C [Example 1349]
5. Cc1cccn2nc([C@@H]3c4nc[nH]c4CCN3C(=O)c3nnc(-c4cccnc4)o3)cc12 [Example 894]
6. Cc1cccc2cc([C@@H]3c4nc[nH]c4CCN3C(=O)c3oc(C4(O)CC4)nc3C(F)F)nn12 [Example 1280]
7. Cc1cccn2nc([C@H]3c4nc[nH]c4CCN3C(=O)c3nnc(C4CC4)o3)cc12 [Example 925]

(A)
1: > 5 µM; 2: 1 to 5 µM; 3: > 5 µM; 4: > 5 µM; 5: < 0.5 µM; 6: < 0.5 µM; 7: > 5 µM

(Q) # query: AC50 | item O=C(c1ocnc1C(F)F)N1CCc2[nH]cnc2[C@H]1c1cc2ccc(C(F)(F)F)cn2n1 [Example 1104] | system: human PAH with the R408W mutation (Homo sapiens, UniProt P00439, R408W)
(A) < 0.5 µM

----------
Target: human PAH with the R408W mutation (Homo sapiens, UniProt P00439, R408W)
Construct: expressed in transfected cells
Test: Cell Based Phenylalanine Flux Assay
Conditions: A375 cells expressing human R408W PAH; 24 hrs with compound, then sepiapterin and 13C9,15N-Phenylalanine for 4 hours; 13C-Tyrosine by LC-MS; average where tested multiple times; read-out: AC50
Hi there, I'd appreciate the recorded AC50 for every entry that follows.

Recorded AC50, per entry:
Fc1ccc(-c2nnc(N3CCc4[nH]cnc4[C@H]3c3cc4c(F)cccn4n3)o2)cc1	< 500 nM
Cc1cccc2cc([C@@H]3c4nc[nH]c4CCN3C(=O)c3nnc(-c4cnn(C(F)(F)F)c4)o3)nn12	500 to 1000 nM
Cc1cccn2nc([C@@H]3c4nc[nH]c4CCN3C(=O)c3nnc(-c4ccccn4)s3)cc12	< 500 nM

Hi! Can you tell me AC50 for each of these compounds?
1. Cc1cccc2cc([C@H]3c4nc[nH]c4CCN3C(=O)c3nnc(-c4ccn(C(F)(F)F)n4)o3)nn12
2. Cc1ccc2c(C(=O)N3CCc4[nH]cnc4[C@H]3c3cc4c(C)cccn4n3)cnn2c1
3. Cc1c(-c2nnc(C(=O)N3CCc4[nH]cnc4[C@H]3c3cc4c(OC(F)(F)F)cccn4n3)o2)cnn1C
4. CC(C)(F)c1nnc(C(=O)N2CCc3[nH]cnc3[C@H]2c2cc3c(Br)cccn3n2)o1

(A)
1000 to 5000 nM
500 to 1000 nM
< 500 nM
< 500 nM

----------
Exercise: for every item that follows, state its recorded AC50.
Molecular target: human PAH with the R408W mutation (Homo sapiens, UniProt P00439, R408W)
Construct: expressed in transfected cells
Assay: Cell Based Phenylalanine Flux Assay;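 further: Ten-point dose curve from 2-fold serial dilutions, run in duplicate at 0.5% DMSO final, tracer step used 20 µM sepiapterin and 800 µM labeled phenylalanine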
Conditions: A375 cells expressing human R408W PAH; 24 hrs compound incubation; 13C-Tyrosine by LC-MS; average where tested multiple times; read-out: AC50

These recorded examples may help you get a feel for the data.
Cc1cccc2cc([C@H]3c4nc[nH]c4CCN3C(=O)c3nnc(-c4cnn(C(F)F)c4)o3)nn12	> 5 µM
O=C(c1nnc(-c2ccccn2)o1)N1CCc2[nH]cnc2[C@@H]1c1cc2c(C(F)(F)F)cccn2n1	> 5 µM
Cc1ncccc1-c1nnc(C(=O)N2CCc3[nH]cnc3[C@@H]2c2cc3c(Cl)cccn3n2)o1	> 5 µM

# context switch: different compound, same AC50
(Q) Request: AC50, test system human PAH with the R408W mutation (Homo sapiens, UniProt P00439, R408W), entry "Cc1ncccc1-c1nnc(C(=O)N2CCc3[nH]cnc3[C@@H]2c2cc3c(C(F)(F)F)cccn3n2)o1"
(A) 1 to 5 µM
